Item-by-item account of GI50
# Test system: HOP-92 NSCLC
# experiment summary: NCI tumour cell line growth inhibition, 48 h
quantity name: GI50

compound=O=C(/C=C(\[O-])c1ccccc1)CCCCCCC(=O)/C=C(\[O-])c1ccccc1.O=C(/C=C(\[O-])c1ccccc1)CCCCCCC(=O)/C=C(\[O-])c1ccccc1.O=C(/C=C(\[O-])c1ccccc1)CCCCCCC(=O)/C=C(\[O-])c1ccccc1.[La+3].[La+3] quantity_name=GI50 measurement="> 50 µM"
compound="OC(c1cccc(C(F)(F)F)c1)c1cnccc1NC1CCCCCC1 (stereo not drawn)" quantity_name=GI50 measurement="1.32 µM"
compound=CC[n+]1ccc2c(c1)C(=O)c1nccc3c1c-2nc1ccccc13 quantity_name=GI50 measurement="1.45 µM"
compound=ClCc1ccccc1CSc1ncnc2nc[nH]c12 quantity_name=GI50 measurement="> 60 µM"
compound=Clc1ccc(Cc2nc3cc4ccccc4cc3[nH]2)cc1 quantity_name=GI50 measurement="19.5 µM"
compound=CCOC(=O)c1cc(-c2ccc([N+](=O)[O-])cc2)n(-c2ccc(C(=O)O)c(O)c2)c1C quantity_name=GI50 measurement="2.09 µM"
compound=O=C(Cc1ccc(/C=C/C(=O)c2ncc[nH]2)cc1)Nc1ccc(Cl)cc1 quantity_name=GI50 measurement="5.74 µM"
compound=C[C@@H]1Cc2c([nH]c3ccccc23)[C@@H](c2c(F)cc(/C=C/C(=O)O)cc2F)N1CC(C)(C)F quantity_name=GI50 measurement="15 µM"

----------
# TGI per record follows
# Test system: SK-OV-3 ovarian
# experiment summary: NCI tumour cell line growth inhibition, 48 h
quantity name: TGI

molecule="CCC[C@H](C)[C@H]1NC(=O)[C@@H](NC(=O)[C@@H](CC(C)C)N(C)C(=O)C2CCCN2C(=O)[C@H](C)O)[C@@H](C)OC(=O)[C@H](CC(C)C)N(C)C(=O)[C@@H]2CCCN2C(=O)[C@H](CC(C)C)NC(=O)[C@@H](C)C(=O)[C@H](C(C)C)OC(=O)C[C@@H]1O (some centres undefined)" assay_system="SK-OV-3 ovarian" quantity_name=TGI measurement="0.14 µM"
molecule="N#Cc1cnn2ccn(C3OC(COC(=O)c4ccccc4)C(OC(=O)c4ccccc4)C3OC(=O)c3ccccc3)c12 (centres undefined)" assay_system="SK-OV-3 ovarian" quantity_name=TGI measurement="> 21.5 µM"
molecule=CC[n+]1ccc2c(c1)C(=O)c1nccc3c1c-2nc1ccccc13 assay_system="SK-OV-3 ovarian" quantity_name=TGI measurement="4.83 µM"
molecule=Cc1cc(O)cc(O)c1N=Nc1ccc([N+](=O)[O-])cc1 assay_system="SK-OV-3 ovarian" quantity_name=TGI measurement="> 100 µM"
molecule="CCCCCCCCCCCCOC1C(CNCC2OC3OC(C)(C)OC3C2NC(=O)Nc2ccc(C(=O)OCC)cc2)OC2OC(C)(C)OC21 (centres undefined)" assay_system="SK-OV-3 ovarian" quantity_name=TGI measurement="23.3 µM"
molecule=CC(=O)c1ccc(N(/C=C/C(=O)C(F)(F)F)CC(=O)c2ccc(Cl)c(Cl)c2)cc1 assay_system="SK-OV-3 ovarian" quantity_name=TGI measurement="38.9 µM"
molecule=O=C(OCc1ccccc1)OOC(=O)OCc1ccccc1 assay_system="SK-OV-3 ovarian" quantity_name=TGI measurement="> 100 µM"
molecule=COc1ccc(CNc2nc3ccc(C(F)(F)F)cc3nc2-c2ccccc2)cc1OC assay_system="SK-OV-3 ovarian" quantity_name=TGI measurement="> 100 µM"
molecule=CCOP(=O)(OCC)/C(F)=C/c1ccccc1 assay_system="SK-OV-3 ovarian" quantity_name=TGI measurement="> 100 µM"
molecule=O=[N+]([O-])C(=C(Sc1ccccc1)Sc1ccccc1)C(Cl)=C(Cl)Cl assay_system="SK-OV-3 ovarian" quantity_name=TGI measurement="24.6 µM"
molecule=O=C(O)Cc1c[nH]c2ccc(F)cc12 assay_system="SK-OV-3 ovarian" quantity_name=TGI measurement="> 100 µM"
molecule=Cn1c(-c2nonc2N)nc2cnccc21 assay_system="SK-OV-3 ovarian" quantity_name=TGI measurement="> 25 µM"
molecule=CCCCn1/c(=N/C(=S)N(C)C)ss/c1=N\C(=S)N(C)C assay_system="SK-OV-3 ovarian" quantity_name=TGI measurement="> 100 µM"
molecule=CCOC(=O)C(=O)N1C(C)=C(C(=O)OCC)CC(C(=O)OCC)=C1C assay_system="SK-OV-3 ovarian" quantity_name=TGI measurement="> 100 µM"
